# target entity: human TRPM8 (Homo sapiens, UniProt Q7Z2W7)
# Sequence (Q7Z2W7 whole entry): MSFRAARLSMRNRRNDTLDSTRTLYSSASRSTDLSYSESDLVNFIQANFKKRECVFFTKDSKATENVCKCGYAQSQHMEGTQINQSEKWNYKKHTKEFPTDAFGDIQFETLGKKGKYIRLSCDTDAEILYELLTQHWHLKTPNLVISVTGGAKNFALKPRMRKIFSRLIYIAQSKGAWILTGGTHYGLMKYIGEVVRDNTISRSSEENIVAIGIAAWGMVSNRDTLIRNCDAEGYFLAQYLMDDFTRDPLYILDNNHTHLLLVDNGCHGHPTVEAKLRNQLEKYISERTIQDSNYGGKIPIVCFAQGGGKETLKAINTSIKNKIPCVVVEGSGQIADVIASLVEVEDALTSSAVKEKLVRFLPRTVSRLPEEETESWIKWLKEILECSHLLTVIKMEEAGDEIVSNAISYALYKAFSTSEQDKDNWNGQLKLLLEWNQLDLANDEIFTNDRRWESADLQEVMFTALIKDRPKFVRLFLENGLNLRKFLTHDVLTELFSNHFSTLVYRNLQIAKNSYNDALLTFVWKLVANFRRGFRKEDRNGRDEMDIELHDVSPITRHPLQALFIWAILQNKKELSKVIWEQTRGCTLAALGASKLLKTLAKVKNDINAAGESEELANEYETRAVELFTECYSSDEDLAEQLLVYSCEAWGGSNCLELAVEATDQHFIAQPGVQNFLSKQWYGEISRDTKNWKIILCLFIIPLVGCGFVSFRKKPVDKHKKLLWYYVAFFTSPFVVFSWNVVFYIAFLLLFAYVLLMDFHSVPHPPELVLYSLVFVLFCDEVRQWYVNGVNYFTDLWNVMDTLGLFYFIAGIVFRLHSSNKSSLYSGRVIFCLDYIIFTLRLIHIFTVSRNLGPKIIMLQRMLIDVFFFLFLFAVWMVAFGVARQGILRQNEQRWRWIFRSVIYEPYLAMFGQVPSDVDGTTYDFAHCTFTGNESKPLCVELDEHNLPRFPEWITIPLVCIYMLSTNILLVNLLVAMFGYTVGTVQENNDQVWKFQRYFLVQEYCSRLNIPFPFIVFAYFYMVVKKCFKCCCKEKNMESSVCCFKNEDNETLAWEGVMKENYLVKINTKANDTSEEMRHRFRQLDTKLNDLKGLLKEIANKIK
# procedure details: In Vitro human TRPM8 Functional Assay (intracellular Ca2+, Fluo4, FDSS, menthol activation)
# condition context: HEK293 cells stably expressing human TRPM8; activation with L-(-)-Menthol; 11-point dose-response
property: IC50

molecule="O=C(O)c1ccc(S(=O)(=O)N(Cc2ccccc2)c2ncc(C(F)(F)F)cc2Br)cc1 [Example 151]" measured="< 1 µM"
molecule="Cc1cc(S(=O)(=O)N(Cc2ccccc2)c2ncc(C(F)(F)F)cc2Cl)ccc1C(=O)O [Example 143]" measured="< 1 µM"
molecule="O=C(O)c1cccc(S(=O)(=O)N(Cc2ccccc2)c2ccccc2Cl)c1 [Example 112]" measured="10 to 30 µM"
molecule="O=C(O)c1ccc(S(=O)(=O)N(Cc2csc(-c3ccccc3)n2)c2ncc(C(F)(F)F)cc2Cl)cc1 [Example 198]" measured="< 1 µM"
molecule="O=C(O)c1ccc(S(=O)(=O)N(Cc2ccccc2)c2ncccc2C(F)(F)F)cc1 [Example 2]" measured="10 to 30 µM"
molecule="COc1cccc(N(C(C)c2ccccc2)S(=O)(=O)c2ccc(F)c(Cl)c2)c1 (centres unmarked) [Example 94]" measured="1 to 10 µM"
molecule="O=C(O)c1cc(S(=O)(=O)N(Cc2ccccc2)c2ccccc2)ccc1Cl [Example 117]" measured="10 to 30 µM"
molecule="O=C(O)c1ccc(S(=O)(=O)N(Cc2ccc(F)c(Cl)c2)c2ncc(Cl)cc2Cl)cc1 [Example 69]" measured="< 1 µM"
molecule="O=C(O)c1ccc(S(=O)(=O)N(CCOc2ccc(F)cc2)c2ncc(Cl)cc2Cl)cc1 [Example 73]" measured="10 to 30 µM"
molecule="COc1ccc(S(=O)(=O)N(Cc2ccccc2)c2ncc(C(F)(F)F)cc2Cl)cc1 [Example 175]" measured="< 1 µM"
molecule="Cc1cc(Cl)cnc1N(Cc1ccccc1)S(=O)(=O)c1ccc(C(=O)O)cc1 [Example 38]" measured="< 1 µM"
molecule="COc1ccccc1N(Cc1ccccc1)S(=O)(=O)c1cc(C(=O)O)ccc1Cl [Example 118]" measured="1 to 10 µM"
molecule="O=C(O)c1ccc(S(=O)(=O)N(Cc2ccc(-c3cnco3)cc2)c2ncc(C(F)(F)F)cc2Cl)cc1 [Example 159]" measured="< 1 µM"
molecule="Cc1cccc(N(C(C)c2ccccc2F)S(=O)(=O)c2ccccc2C)c1 (centres unmarked) [Example 100]" measured="1 to 10 µM"
molecule="C[C@H](c1ccccc1)N(c1ncc(C(F)(F)F)cc1Cl)S(=O)(=O)c1ccc(C(=O)O)cc1 [Example 166]" measured="< 1 µM"
molecule="CN(C)C(=O)NCc1ccc(S(=O)(=O)N(Cc2ccccc2)c2ncc(C(F)(F)F)cc2Cl)cc1 [Example 179]" measured="< 1 µM"
molecule="O=C(O)c1ccc(S(=O)(=O)N(Cc2ccccc2)c2ncc(Br)cc2Cl)cc1 [Example 180]" measured="< 1 µM"
molecule="O=C(O)c1ccc(S(=O)(=O)N(CCN2CCCCC2)c2ccc(C(F)(F)F)cc2Cl)cc1 [Example 83]" measured="1 to 10 µM"
molecule="O=C(O)c1ccc(S(=O)(=O)N(Cc2ccc(C(F)(F)F)nc2)c2ncc(C(F)(F)F)cc2Cl)cc1 [Example 160]" measured="< 1 µM"
molecule="COc1cccc(-c2cnc(N(Cc3ccccc3)S(=O)(=O)c3ccc(C(=O)O)cc3)c(Cl)c2)c1 [Example 187]" measured="< 1 µM"
molecule="O=C(O)c1cccc(S(=O)(=O)N(Cc2ccccc2)c2cccc(C(F)(F)F)c2)c1 [Example 111]" measured="1 to 10 µM"
molecule="Cc1ccc(CN(c2ncc(Cl)cc2Cl)S(=O)(=O)c2ccc(C(=O)O)cc2)cc1C(F)(F)F [Example 68]" measured="< 1 µM"
molecule="O=C(O)c1ccc(S(=O)(=O)N(CC2CCN(c3ccccn3)CC2)c2ncc(C(F)(F)F)cc2Cl)cc1 [Example 142]" measured="< 1 µM"
molecule="NS(=O)(=O)Nc1ccc(S(=O)(=O)N(Cc2ccccc2)c2ncc(C(F)(F)F)cc2Cl)cc1 [Example 196]" measured="< 1 µM"
molecule="NC(=O)Nc1ccc(S(=O)(=O)N(Cc2ccccc2)c2ncc(C(F)(F)F)cc2Cl)cc1 [Example 195]" measured="< 1 µM"
molecule="O=C(O)c1ccc(S(=O)(=O)N(Cc2ccsc2)c2ncc(C(F)(F)F)cc2Cl)cc1 [Example 172]" measured="< 1 µM"
molecule="CN(C)C(=O)c1ccc(S(=O)(=O)N(Cc2ccccc2)c2ncc(C(F)(F)F)cc2Cl)cc1 [Example 12]" measured="< 1 µM"
molecule="O=S(=O)(c1ccccc1)N(Cc1ccccc1)c1ccccn1 [Example 131]" measured="1 to 10 µM"
molecule="O=C(O)c1ccc(S(=O)(=O)N(Cc2ccccc2-c2ccccc2)c2ncc(C(F)(F)F)cc2Cl)cc1 [Example 165]" measured="< 1 µM"
molecule="Cc1ccc(-c2ccc(CN(c3ncc(C(F)(F)F)cc3Cl)S(=O)(=O)c3ccc(C(=O)O)cc3)cc2)cn1 [Example 163]" measured="< 1 µM"
molecule="O=C(O)c1ccc(S(=O)(=O)N(Cc2ccccc2C(F)(F)F)c2ncc(Cl)cc2Cl)cc1 [Example 64]" measured="< 1 µM"
molecule="COc1ccc(N(C(C)c2ccccc2OC)S(=O)(=O)c2ccc(C)c(Cl)c2)cc1 (centres unmarked) [Example 104]" measured="10 to 30 µM"
